- Test system: adult female Sprague-Dawley rats
- assay info: rat infusion study: loss/recovery of righting reflex and walk (anaesthetic effect)
- Type: in vivo
- measurement parameters: time from end of infusion to recovery of righting reflex
Exercise: state measured RRR Time for each of the compounds provided.
Reply with the number and its unit after it.

Name the recorded RRR Time of the item CCCOC(=O)CCCCNC1(c2ccccc2Cl)CCCCC1=O.Cl (racemic) [rac-C4nPr] in your answer.
45 ± 15 s

Name the recorded RRR Time of the item CC(C)OC(=O)CCNC1(c2ccccc2Cl)CCCCC1=O.Cl (racemic) [rac-C2iPr] in your answer.
83 ± 19 s

Name the recorded RRR Time of the item CCOC(=O)CCCN(C)C1(c2ccccc2Cl)CCCCC1=O.Cl (stereo not shown) [compound 20] in your answer.
0 s

Name the recorded RRR Time of the item COC(=O)CCCCNC1(c2ccccc2Cl)CCCCC1=O.Cl (racemic) [rac-C4Me] in your answer.
99 ± 16 s

Name the recorded RRR Time of the item CCOC(=O)CCCCNC1(c2ccccc2Cl)CCCCC1=O.Cl (racemic) [rac-C4Et] in your answer.
134 ± 22 s

Name the recorded RRR Time of the item CC(C)OC(=O)CCCNC1(c2ccccc2Cl)CCCCC1=O.Cl (racemic) [rac-C3iPr] in your answer.
37 ± 22 s

Name the recorded RRR Time of the item CC(=O)OCCCN[C@]1(c2ccccc2Cl)CCCCC1=O.Cl [(S)-C3OAc] in your answer.
566 ± 30 s

* * *

Exercise: state measured melting point for each of the compounds provided.

Name the recorded melting point of the item CC(C)OC(=O)CCN[C@@]1(c2ccccc2Cl)CCCCC1=O.Cl [(R)-C2iPr] in your answer.
216 to 219 °C

Name the recorded melting point of the item CCOC(=O)CCCCNC1(c2ccccc2Cl)CCCCC1=O.Cl (racemic) in your answer.
169 to 172 °C

Name the recorded melting point of the item CC(C)OC(=O)CCCNC1(c2ccccc2Cl)CCCCC1=O.Cl (racemic) in your answer.
167 to 169 °C

Name the recorded melting point of the item CC(C)OC(=O)CCN[C@]1(c2ccccc2Cl)CCCCC1=O.Cl [(S)-C2iPr] in your answer.
208 to 211 °C

Name the recorded melting point of the item CC(C)OC(=O)CCNC1(c2ccccc2Cl)CCCCC1=O.Cl (racemic) in your answer.
203 to 205 °C

Name the recorded melting point of the item CC(C)OC(=O)CCCCNC1(c2ccccc2Cl)CCCCC1=O.Cl (racemic) in your answer.
161 to 163 °C

Name the recorded melting point of the item CC(=O)OCCCNC1(c2ccccc2Cl)CCCCC1=O.Cl (racemic) in your answer.
180 to 183 °C

Name the recorded melting point of the item CCOC(=O)CCNC1(c2ccccc2Cl)CCCCC1=O.Cl (racemic) in your answer.
199 to 202 °C

Name the recorded melting point of the item CCOC(=O)CCCNC1(c2ccccc2Cl)CCCCC1=O.Cl (racemic) in your answer.
186 to 189 °C

* * *

- System: adult female Sprague-Dawley rats
- assay info: rat infusion study: loss/recovery of righting reflex and walk (anaesthetic effect)
- Type: in vivo
- measurement parameters: time from onset of i.v. infusion to loss of righting reflex; 20 mg/kg/min initially
Exercise: state measured LRR Time for each of the compounds provided.
Express it in s; write the number only.

Print adult female Sprague-Dawley rats LRR Time for CCCOC(=O)CCCCNC1(c2ccccc2Cl)CCCCC1=O.Cl (racemic) .
271

Print adult female Sprague-Dawley rats LRR Time for CCOC(=O)CCCN(C)C1(c2ccccc2Cl)CCCCC1=O.Cl (centres unmarked) .
600

Print adult female Sprague-Dawley rats LRR Time for CC(C)OC(=O)CCNC1(c2ccccc2Cl)CCCCC1=O.Cl (racemic) .
103

Print adult female Sprague-Dawley rats LRR Time for CCOC(=O)CCN[C@]1(c2ccccc2Cl)CCCCC1=O.Cl [(S)-C2Et] .
171

Print adult female Sprague-Dawley rats LRR Time for CCOC(=O)CCN(C)C1(c2ccccc2Cl)CCCCC1=O (centres unmarked) .
280

Print adult female Sprague-Dawley rats LRR Time for COC(=O)CCCCNC1(c2ccccc2Cl)CCCCC1=O.Cl (racemic) .
92

Print adult female Sprague-Dawley rats LRR Time for COC(=O)CCCCN(C)C1(c2ccccc2Cl)CCCCC1=O (centres unmarked) .
420

Print adult female Sprague-Dawley rats LRR Time for CC(C)OC(=O)CCN[C@]1(c2ccccc2Cl)CCCCC1=O.Cl [(S)-C2iPr] .
222
